- Assay target: the molecule itself
- Test: SEC; isolated dimer diluted to 5 μM in standard buffer (20 mM HEPES, 150 mM NaCl, 2 mM β-mercaptoethanol) at pH 6.0, 37 °C, aliquots over 2 h on Superdex 75; dimer to monomers; Kd from the equilibrium dimer fraction, koff from a single exponential decay, kon derived from Kd = koff/kon
Measure name: Kd
Don't forget the unit after the value.

Asked: Can you share its Kd? I mean this protein: forkhead domain of human FoxP1, wild type (domain or fragment) AEVRPPFTYASLIRQAILESPEKQLTLNEIYNWFTRMFAYFRRNAATWKNAVRHNLSLHKCFVRVENVKGAVWTVDEVEFQKRRPQK
Given back: 3.7 µM
